# Measured target: T1, RBFOX1 RRM (Homo sapiens, UniProt Q9NWB1 109-208)
# T1 sequence: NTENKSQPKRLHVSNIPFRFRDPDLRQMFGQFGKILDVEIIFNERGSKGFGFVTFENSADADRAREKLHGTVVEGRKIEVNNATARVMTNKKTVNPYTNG
# Procedure details: EMSA; HiTS-Eq, 1 nM pool, 10 min; buffer printed only for the single-RNA assays: 10 mM Tris pH 7.5, 150 mM NaCl, 3.4 mM EDTA, 0.001% NP-40, 30 C
# Particulars: tags: His6 N-terminal (pET28a); label: 5' 32P
Over roughly 16,000 sequences, “ka relative to ugcaugu” has its median near 0.0091; the highest 2% begin near 0.032. This is one part of a sample in which the highest values are shown more often than they occur.
Metric name: binding signal

Binder	Metric name	Recorded result
GAAACCA (DNA:RNA) RNA: GGGAGACCGGAAUUCAGAUUGUCCGAAACCAUUAAAUCCCGUCGUAGCCACCA DNA 1: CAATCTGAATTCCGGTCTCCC DNA 2: TGGTGGCTACGACGGGATT	binding signal	0.00223 KA relative to UGCAUGU

Task item: Please give the measured binding signal for this binder: GGGUUAG (DNA:RNA) RNA: GGGAGACCGGAAUUCAGAUUGUCCGGGUUAGUUAAAUCCCGUCGUAGCCACCA DNA 1: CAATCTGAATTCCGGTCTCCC DNA 2: TGGTGGCTACGACGGGATT
Reply: 0.0153 KA relative to UGCAUGU

Task item: Queued: CCAUGCU (DNA:RNA) RNA: GGGAGACCGGAAUUCAGAUUGUCCCCAUGCUUUAAAUCCCGUCGUAGCCACCA DNA 1: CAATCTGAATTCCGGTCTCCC DNA 2: TGGTGGCTACGACGGGATT
Reply: 0.00802 KA relative to UGCAUGU

Task item: Queued: CUUUUUG (DNA:RNA) RNA: GGGAGACCGGAAUUCAGAUUGUCCCUUUUUGUUAAAUCCCGUCGUAGCCACCA DNA 1: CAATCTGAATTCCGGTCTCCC DNA 2: TGGTGGCTACGACGGGATT
Reply: 0.0263 KA relative to UGCAUGU

Task item: Queued: ACCAUGG (DNA:RNA) RNA: GGGAGACCGGAAUUCAGAUUGUCCACCAUGGUUAAAUCCCGUCGUAGCCACCA DNA 1: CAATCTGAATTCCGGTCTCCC DNA 2: TGGTGGCTACGACGGGATT
Reply: 0.00726 KA relative to UGCAUGU
